# TGT: JAK3 (Homo sapiens, UniProt P52333)
# Sequence (P52333 whole entry, species assumed): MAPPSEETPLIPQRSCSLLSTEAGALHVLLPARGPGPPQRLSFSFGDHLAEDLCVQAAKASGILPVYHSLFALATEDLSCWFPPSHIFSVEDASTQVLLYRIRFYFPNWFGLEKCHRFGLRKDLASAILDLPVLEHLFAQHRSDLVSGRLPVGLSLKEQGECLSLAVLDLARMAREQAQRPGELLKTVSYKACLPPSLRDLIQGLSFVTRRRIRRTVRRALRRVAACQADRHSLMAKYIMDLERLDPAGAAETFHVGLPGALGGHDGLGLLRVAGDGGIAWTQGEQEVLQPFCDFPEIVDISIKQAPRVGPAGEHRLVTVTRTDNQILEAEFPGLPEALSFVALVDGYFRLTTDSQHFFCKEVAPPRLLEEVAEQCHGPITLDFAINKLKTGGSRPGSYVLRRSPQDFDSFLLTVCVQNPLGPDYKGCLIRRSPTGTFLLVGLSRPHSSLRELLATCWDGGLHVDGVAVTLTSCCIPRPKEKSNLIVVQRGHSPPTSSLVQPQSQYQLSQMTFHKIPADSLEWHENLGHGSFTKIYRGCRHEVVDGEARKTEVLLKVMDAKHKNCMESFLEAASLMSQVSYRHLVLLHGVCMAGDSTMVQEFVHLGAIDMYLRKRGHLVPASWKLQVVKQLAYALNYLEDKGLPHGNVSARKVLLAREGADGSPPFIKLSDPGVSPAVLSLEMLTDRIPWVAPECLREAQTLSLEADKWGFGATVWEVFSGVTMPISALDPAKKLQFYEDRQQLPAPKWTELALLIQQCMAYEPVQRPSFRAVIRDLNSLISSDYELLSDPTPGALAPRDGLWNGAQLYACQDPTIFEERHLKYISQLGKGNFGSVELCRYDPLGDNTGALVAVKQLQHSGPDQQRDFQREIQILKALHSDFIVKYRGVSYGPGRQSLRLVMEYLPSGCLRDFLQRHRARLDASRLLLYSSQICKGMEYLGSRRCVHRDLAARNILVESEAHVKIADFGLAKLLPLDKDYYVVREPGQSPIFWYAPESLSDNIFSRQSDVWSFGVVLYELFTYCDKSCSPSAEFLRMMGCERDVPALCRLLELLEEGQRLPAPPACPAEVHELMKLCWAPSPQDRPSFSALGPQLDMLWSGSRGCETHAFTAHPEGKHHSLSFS
# ASSAY_NOTES: biochemical
pKi: −log10 of the molar value.
QUANTITY_NAME: pKi

Specify pKi for Cc1cc(Nc2cc(N3CC(F)(C4CC4)C3)nc(Sc3ccc(NC(=O)CC(F)(F)F)nc3)n2)[nH]n1 , system JAK3 (Homo sapiens, UniProt P52333).
≥ 8.00

Would you please give the reported pKi of Cc1cc(Nc2cc(N3CC(C)(O)C3)nc(Sc3ccc(NC(=O)c4ccccc4C(F)(F)F)cc3)n2)[nH]n1 with JAK3 (Homo sapiens, UniProt P52333)?
≥ 8.00

# assay system JAK3 (Homo sapiens, UniProt P52333): give pKi of COC1(C)CN(c2cc(Nc3cc(C)n[nH]3)nc(Sc3ccc(NC(=O)c4ccccc4Cl)cc3)n2)C1
6.30 to 8.00

* * *

Provide the recorded Ki for the entries that follow.
# TGT: FLT-3 (Homo sapiens, UniProt P36888)
# Sequence (P36888 27-993, species assumed): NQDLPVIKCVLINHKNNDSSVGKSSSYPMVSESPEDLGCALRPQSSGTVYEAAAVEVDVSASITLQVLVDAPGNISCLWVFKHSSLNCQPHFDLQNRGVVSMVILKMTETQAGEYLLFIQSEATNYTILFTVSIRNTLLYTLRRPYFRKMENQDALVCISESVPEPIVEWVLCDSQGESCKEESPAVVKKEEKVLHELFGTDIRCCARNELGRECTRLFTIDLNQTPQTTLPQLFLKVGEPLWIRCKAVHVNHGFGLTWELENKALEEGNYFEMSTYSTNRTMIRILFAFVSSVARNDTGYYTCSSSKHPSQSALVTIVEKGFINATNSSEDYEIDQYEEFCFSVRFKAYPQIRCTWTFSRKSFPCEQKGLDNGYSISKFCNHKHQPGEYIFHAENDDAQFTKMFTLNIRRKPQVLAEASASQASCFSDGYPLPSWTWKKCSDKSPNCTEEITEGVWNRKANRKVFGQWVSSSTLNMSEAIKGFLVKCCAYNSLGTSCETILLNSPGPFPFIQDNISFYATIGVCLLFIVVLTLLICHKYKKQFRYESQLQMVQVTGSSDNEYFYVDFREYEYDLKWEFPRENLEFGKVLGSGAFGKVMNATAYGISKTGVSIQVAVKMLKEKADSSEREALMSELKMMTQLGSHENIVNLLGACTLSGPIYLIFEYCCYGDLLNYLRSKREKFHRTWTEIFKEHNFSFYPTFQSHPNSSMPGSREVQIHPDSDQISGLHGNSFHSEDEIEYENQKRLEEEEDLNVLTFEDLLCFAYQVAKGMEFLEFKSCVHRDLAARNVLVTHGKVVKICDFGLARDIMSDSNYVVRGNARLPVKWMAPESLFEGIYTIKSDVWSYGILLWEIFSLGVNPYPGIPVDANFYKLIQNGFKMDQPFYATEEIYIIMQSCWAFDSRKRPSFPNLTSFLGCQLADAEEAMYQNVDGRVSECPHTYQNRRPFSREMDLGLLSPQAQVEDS
# ASSAY_NOTES: FLT-3 inhibition assay, radiometric filter-binding
# Type: biochemical
# CONDITION_NOTES: read-out: FLT-3 Ki value

// fetch Ki; item: Cc1cc(Nc2cc(N3CCC3)nc(Sc3ccc(NC(=O)Cc4ccccc4Cl)cc3)n2)[nH]n1 ; system: FLT-3 (Homo sapiens, UniProt P36888)
150 to 1000 nM

// fetch Ki for Cc1cc(Nc2cc(N3CCC3)nc(Sc3ccc(C(=O)NC4CCCC4)cc3)n2)n[nH]1 ; system: FLT-3 (Homo sapiens, UniProt P36888)
150 to 1000 nM

Quote Ki with test system FLT-3 (Homo sapiens, UniProt P36888) for Cc1cc(Nc2cc(N3CCC3)nc(Sc3ccc(NC(=O)CCC(F)(F)F)cc3)n2)[nH]n1
50 to 150 nM

Please report Ki with FLT-3 (Homo sapiens, UniProt P36888) for item Cc1cc(Nc2cc(N3CCC3)nc(Sc3ccc(NC(=O)c4ccc(CN5CCC5)cc4)cc3)n2)[nH]n1 .
150 to 1000 nM

Under FLT-3 (Homo sapiens, UniProt P36888): report Ki of Cc1ccc(C(=O)Nc2ccc(Sc3nc(Nc4cc(C)n[nH]4)cc(N4CCC4)n3)cc2)cn1 .
150 to 1000 nM

# return Ki of CCC(=O)Nc1ccc(Sc2nc(Nc3cc(C)n[nH]3)cc(N3CC(C)(O)C3)n2)cc1 (system: FLT-3 (Homo sapiens, UniProt P36888))
50 to 150 nM

Provide Ki, tested on FLT-3 (Homo sapiens, UniProt P36888), for Cc1cc(Nc2cc(N3CCC3)nc(Sc3ccc(NC(=O)c4ccc(-c5ccccc5)cc4Cl)cc3)n2)[nH]n1 .
150 to 1000 nM

* * *

For each record, write down the corresponding pKi.
# TGT: UniProtKB O14965
# Sequence (O14965 1-403): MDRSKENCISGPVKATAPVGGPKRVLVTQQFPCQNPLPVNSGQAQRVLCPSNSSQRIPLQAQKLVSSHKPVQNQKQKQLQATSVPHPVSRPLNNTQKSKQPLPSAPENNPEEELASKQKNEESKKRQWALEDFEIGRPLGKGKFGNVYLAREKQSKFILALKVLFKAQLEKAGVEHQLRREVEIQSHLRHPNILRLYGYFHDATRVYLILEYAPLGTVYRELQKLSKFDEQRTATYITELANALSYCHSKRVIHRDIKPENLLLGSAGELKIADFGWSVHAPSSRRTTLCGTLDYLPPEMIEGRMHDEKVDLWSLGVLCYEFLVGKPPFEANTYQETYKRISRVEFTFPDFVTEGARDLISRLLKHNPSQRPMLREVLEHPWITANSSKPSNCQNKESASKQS
# ASSAY_NOTES: Aurora-2 (Aurora A) inhibition assay, coupled enzyme
# Format: biochemical
# CONDITION_NOTES: read-out: Aurora A kinase Ki value
pKi: −log10 of the molar value.

In one line, give reported pKi of the entry CCC(=O)Nc1ccc(Sc2nc(Nc3cc(C)n[nH]3)cc(N3CC(C)(C#N)C3)n2)cc1 [Compound 79] .
8.30 to 9.00

Report pKi for Cc1cc(Nc2cc(N3CCC3)nc(Sc3ccc(NC(=O)c4ccncc4C(F)(F)F)cc3)n2)[nH]n1 [Compound 146]
≥ 9.00

Provide only the value of recorded pKi for Cc1cc(Nc2cc(N3CCC3)nc(Sc3ccc(NC(=O)c4sccc4Cl)cc3)n2)n[nH]1 [Compound 43]
8.30 to 9.00

Read off the recorded pKi for Cc1cc(Nc2cc(NCC3(C)COC3)nc(Sc3ccc(NC(=O)c4ccccc4Cl)cc3)n2)[nH]n1 [Compound 208]
≥ 9.00

Please list pKi recorded for the compound Cc1cc(Nc2cc(N3CC(F)(C4CC4)C3)nc(Sc3ccc4nc(C(F)(F)F)[nH]c4c3)n2)[nH]n1 [Compound 202]
8.30 to 9.00

Fill in reported pKi for this entry: Cc1cc(Nc2cc(N3CC(O)(C4CC4)C3)nc(Sc3ccc4nc(C(F)(F)F)n(C)c4c3)n2)[nH]n1 [Compound 155]
≥ 9.00

# return recorded pKi for entry CCC(=O)Nc1ccc(Sc2nc(Nc3cc(C4CC4)n[nH]3)cc(N3CC(C)(O)C3)n2)cc1 [Compound 76]
8.30 to 9.00

Source listed as patent US8637511B2.
